# Tested on: PPARg:RXRa (NR concentration 180 nM, RXRa partner concentration 90 nM)
# method: PBM binding z-score (relative to random genomic background probes); higher = stronger binding; sequences stand for … in GC…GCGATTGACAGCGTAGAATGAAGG
Decision: PBM binding z-score >= 0.6 yields true, all other cases yield false.

Record excerpt, results attached:
[[record]]
sequencedata = "TCGAGTAGGTTAGGCGCATTCAGAATGGCGTCGA"
grouplabel = "false"

[[record]]
sequencedata = "TCTTGTAGATCAAGCGGGTTAAGAAAGCCTGAGT"
grouplabel = "false"

[[record]]
sequencedata = "CGTCCAAGGTCCAGGTCAGTGAAAGAGACTCGAA"
grouplabel = "false"

[[record]]
sequencedata = "TGAATGAGGTTAAAGATCAGGGACCGTGGCGTCG"
grouplabel = "true"

[[record]]
sequencedata = "CCTTACGGGTCACAGACAGGTTATAGCATTTGGA"
grouplabel = "true"


Then this sequence:
Data request: Determine whether measured PBM binding z-score meets or exceeds 0.6 for `CGAACTTGGTCAGAACAGGACAGTGAAGGATGAT`
Data returned: false
